experiment: melting temperature; fluorescence melt of hairpins on a sequencing array, two-state fit, raised by 9.35 °C to match UV melts; conditions: sodium 0.088 M
Param threshold (50 °C) applies to Tm; output met when value >= threshold, not met when value < threshold.

Previously resolved entries follow.
>  <seq_text>
GCACACGGAAACATGCGC ((.((.(....).)).))

>  <class_label>
not met

$$$$
>  <seq_text>
GCCGTCGAAAGACATGGC ((((((....)))..)))

>  <class_label>
met

$$$$
>  <seq_text>
GCTTGGAAACAAGC (((((....)))))

>  <class_label>
met

$$$$
>  <seq_text>
GACTCCCGAAAGGGGGTC (((.(((....))).)))

>  <class_label>
met

$$$$
>  <seq_text>
GAGGACGGAAACGTCTTC ((.((((....)))).))

>  <class_label>
not met

$$$$

Test whether the sequence GTAGTGCCGAAAGGCTAC (((..(((....)))))) records Tm of 50 °C or higher.
not met

---

Reported Tm values are given for each entry in this list.
test: melting temperature; fluorescence melt of hairpins on a sequencing array, two-state fit, raised by 9.35 °C to match UV melts; details: sodium 0.088 M
# number only, unit °C dropped from output

Which measured Tm value corresponds to GCGACCTATCGC ((((....)))) ?
49.3

Which measured Tm value corresponds to GGGGTTGGAAACGACCCC (((((.(....).))))) ?
57.8

Which measured Tm value corresponds to GCGAAGCGAAAGCATAGC ((.(.((....)).).)) ?
52.5

Which measured Tm value corresponds to GACTAGCGAAAGCTGTC (((.(((....)))))) ?
50.3

---

experiment: melting temperature; fluorescence melt of hairpins on a sequencing array, two-state fit, raised by 9.35 °C to match UV melts; settings: sodium 0.088 M
Please note: Tm exactly at 50 °C is Not fulfilled. Only values below 50 °C get Fulfilled.

Previously resolved entries follow.
>  <seq_text>
GCCCAGCGAAAGCAAGGC (((..((....))..)))

>  <class_label>
Not fulfilled

$$$$
>  <seq_text>
GACAAGGAAACTTGTC ((((((....))))))

>  <class_label>
Not fulfilled

$$$$
>  <seq_text>
GGTGGCGAAAGCCGAACC ((((((....)))..)))

>  <class_label>
Fulfilled

$$$$

Dear colleague, could you confirm whether Tm of GGGTGGGGAAACCTACCC ((((.((....)).)))) falls below 50 °C? Thanks.
Not fulfilled

Dear colleague, could you confirm whether Tm of CGAGATCGGAAACGATCG (((..(((....)))))) falls below 50 °C? Thanks.
Not fulfilled

Dear colleague, could you confirm whether Tm of GGGGACGAAAGTCTTCCC ((((((....)))..))) falls below 50 °C? Thanks.
Fulfilled

Dear colleague, could you confirm whether Tm of GATCATAAACATGATC ((((((....)))))) falls below 50 °C? Thanks.
Fulfilled

---

Reported folding enthalpy values are given for each entry in this list.
test: folding enthalpy; higher = less favourable; fluorescence melt of hairpins on a sequencing array, two-state fit; conditions: sodium 0.088 M
# number only, unit kcal/mol dropped from output

>  <seq_text>
GATCTGGGGCAGATC ((((((...))))))

>  <folding enthalpy / kcal/mol>
-29.4

$$$$
>  <seq_text>
GTCCTGGGAAACTAGGGC (.(((.(....).))).)

>  <folding enthalpy / kcal/mol>
-28.8

$$$$
>  <seq_text>
GCACCTGGAAACAGGTAC (.(((((....))))).)

>  <folding enthalpy / kcal/mol>
-13.2

$$$$
>  <seq_text>
GAACACACGAAAGTGTTC (((..(((....))))))

>  <folding enthalpy / kcal/mol>
-20.5

$$$$
>  <seq_text>
GGGTCACGAAAGTGCCCC (((.(((....))).)))

>  <folding enthalpy / kcal/mol>
-27.4

$$$$
>  <seq_text>
GATCATCCCATGATC ((((((...))))))

>  <folding enthalpy / kcal/mol>
-38.4

$$$$

Next item in the queue.
Which measured folding enthalpy value corresponds to GATCTGCTGGCAGATC ((((((....)))))) ?
-43.6

meta.source: the array DNA melting data of Ke et al. (doi:10.1101/2024.01.08.574731)
